Data credit: patent US8377911B2

Recorded ΔPP (pulse pressure), change from baseline, 6-12 h by entry
Test system: Male beagle dogs
Experiment: canine telemetry protocol, blood pressure reduction efficacy
Assay type: in vivo
Settings: telemetered male beagle dogs, 3 mg/kg, oral gavage, 6-12 h
Form entry: value (mm Hg) — number only.

The cases that follow already have their ΔPP (pulse pressure), change from baseline, 6-12 h on record.
Cc1ncc2c(c1OC(=O)[C@@H]1CCCN1[N+]([O-])=NOC1CCCCC1)CO[C@H]2c1ccc(Cl)cc1 (stereo in doubt) [Example 11]    −2.3
CCCCON=[N+]([O-])N1CCC[C@H]1C(=O)Oc1c(C)ncc2c1CO[C@H]2c1ccc(Cl)cc1 (stereo in doubt) [Example 1]    −6.4
CCCCO/N=[N+](\[O-])N1CCC(C(=O)Oc2c(C)ncc3c2CO[C@H]3c2ccc(Cl)cc2)CC1 [Example 12]    −5.8
CC[C@H](C)CON=[N+]([O-])N1CCC[C@H]1C(=O)Oc1c(C)ncc2c1CO[C@H]2c1ccc(Cl)cc1 (stereo in doubt) [Example 10]    3.4
CCCC(C)ON=[N+]([O-])N1CCC[C@H]1C(=O)Oc1c(C)ncc2c1CO[C@H]2c1ccc(Cl)cc1 (stereo in doubt) [Example 9]    −5.2

Field: next compound
Entry Cc1ncc2c(c1OC(=O)[C@@H]1CCCN1[N+]([O-])=NOCC(C)C)CO[C@H]2c1ccc(Cl)cc1 (stereo in doubt) [Example 5] ; ΔPP (pulse pressure), change from baseline, 6-12 h = −1.7
